# Setup Conditions: in 1,4-dioxane, 313.15 K
Endpoint: solubility (mole fraction)
One number for each entry.

Reported solubility (mole fraction), molecule `Cc1cccc(C(=O)O)c1N` : ____
0.159

###

# Setup Conditions: in isopropanol, 318.15 K
Endpoint: solubility (mole fraction)
Give bare numbers.

Reported solubility (mole fraction), compound `Cc1cccc(C(=O)O)c1N` : ____
0.0427

###

# Setup Conditions: in n-butanol, 293.15 K
Endpoint: solubility (mole fraction)
Give bare numbers.

Reported solubility (mole fraction), molecule `Cc1cccc(C(=O)O)c1N` : ____
0.0212

###

# Setup Conditions: in n-propanol, 283.15 K
Endpoint: solubility (mole fraction)

Reported solubility (mole fraction), compound `Cc1cccc(C(=O)O)c1N` : ____
0.0178

###

# Setup Conditions: in n-propanol, 318.15 K
Endpoint: solubility (mole fraction)

Reported solubility (mole fraction), molecule `Cc1cccc(C(=O)O)c1N` : ____
0.0532

###

# Setup Conditions: in acetone, 303.15 K
Endpoint: solubility (mole fraction)
Answers are plain numbers.

Reported solubility (mole fraction), compound `Cc1cccc(C(=O)O)c1N` : ____
0.121

###

# Setup Conditions: in 1,4-dioxane, 298.15 K
Endpoint: solubility (mole fraction)
Numbers only.

Reported solubility (mole fraction), compound `Cc1cccc(C(=O)O)c1N` : ____
0.127

###

# Setup Conditions: in acetonitrile, 303.15 K
Endpoint: solubility (mole fraction)

Reported solubility (mole fraction), molecule `Cc1cccc(C(=O)O)c1N` : ____
0.054

###

# Setup Conditions: in toluene, 298.15 K
Endpoint: solubility (mole fraction)

Reported solubility (mole fraction), compound `Cc1cccc(C(=O)O)c1N` : ____
0.00298

###

# Setup Conditions: in acetonitrile, 283.15 K
Endpoint: solubility (mole fraction)
Numbers only.

Reported solubility (mole fraction), compound `Cc1cccc(C(=O)O)c1N` : ____
0.0275

###

# Setup Conditions: in acetone, 283.15 K
Endpoint: solubility (mole fraction)

Reported solubility (mole fraction), compound `Cc1cccc(C(=O)O)c1N` : ____
0.0829

###

# Setup Conditions: in cyclohexane, 313.15 K
Endpoint: solubility (mole fraction)
Numbers only.

Reported solubility (mole fraction), compound `Cc1cccc(C(=O)O)c1N` : ____
0.000454

###

# Setup Conditions: in ethyl acetate, 298.15 K
Endpoint: solubility (mole fraction)
Answers are plain numbers.

Reported solubility (mole fraction), compound `Cc1cccc(C(=O)O)c1N` : ____
0.054

###

# Setup Conditions: in ethyl acetate, 303.15 K
Endpoint: solubility (mole fraction)

Reported solubility (mole fraction), molecule `Cc1cccc(C(=O)O)c1N` : ____
0.0619

###

# Setup Conditions: in cyclohexane, 318.15 K
Endpoint: solubility (mole fraction)
Answers are plain numbers.

Reported solubility (mole fraction), compound `Cc1cccc(C(=O)O)c1N` : ____
0.000578

###

# Setup Conditions: in 2-butanone, 278.15 K
Endpoint: solubility (mole fraction)
One number for each entry.

Reported solubility (mole fraction), compound `Cc1cccc(C(=O)O)c1N` : ____
0.0646

###

# Setup Conditions: in 2-butanone, 318.15 K
Endpoint: solubility (mole fraction)
Give bare numbers.

Reported solubility (mole fraction), compound `Cc1cccc(C(=O)O)c1N` : ____
0.134

###

# Setup Conditions: in cyclohexane, 288.15 K
Endpoint: solubility (mole fraction)
One number for each entry.

Reported solubility (mole fraction), compound `Cc1cccc(C(=O)O)c1N` : ____
0.000115
